logD values for the compounds below.
Assay: Lipophilicity, log D of the compound
Format: physicochemical
Conditions: octanol/water

Examples with answers:
CC1(OC(=O)N2CCC([C@H](F)CNC(=O)Cc3c(F)ccc(F)c3F)CC2)CC1	3.4
CC(C)OC(=O)N1CCC(CCNC(=O)Cc2c(F)ccc(F)c2F)CC1	3.4
CC1(OC(=O)N2CCC([C@@H](F)CNC(=O)Cc3c(F)ccc(F)c3F)CC2)CC1	3.4
CC1(OC(=O)N2CCC(CCNC(=O)Cc3c(F)ccc(F)c3F)CC2)CC1	3.5

Now examine the next entry.
Q) Record request: logD value, item C[C@@H](CNC(=O)Cc1c(F)ccc(F)c1F)C1CCN(C(=O)OC2(C)CC2)CC1
A) 3.9
